# ASSAY SYSTEM: human cloned dopamine D4.2 receptors (Homo sapiens, UniProt P21917, DEL265-296)
# Construct: expressed in transfected cells; host or cells: CHO cells
# Sequence (P21917 with tags, fused parts or gaps DEL265-296): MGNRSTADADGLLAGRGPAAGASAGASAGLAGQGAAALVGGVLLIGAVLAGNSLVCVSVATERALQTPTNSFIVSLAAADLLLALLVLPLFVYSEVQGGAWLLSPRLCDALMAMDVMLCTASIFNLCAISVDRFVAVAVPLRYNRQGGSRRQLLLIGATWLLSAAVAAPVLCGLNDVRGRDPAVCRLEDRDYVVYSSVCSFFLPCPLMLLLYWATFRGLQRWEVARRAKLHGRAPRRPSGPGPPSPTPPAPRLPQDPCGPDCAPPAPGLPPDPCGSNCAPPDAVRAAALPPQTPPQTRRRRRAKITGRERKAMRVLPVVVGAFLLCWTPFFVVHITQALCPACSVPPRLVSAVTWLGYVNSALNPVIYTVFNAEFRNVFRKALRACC
# EXPERIMENTAL DETAILS: Inhibition of the binding of 3H-YM-09151-2 to human dopamine D4 receptors
# REPORTED CONDITIONS: at 50 nM; human cloned dopamine D4.2 receptors in CHO-cells
Measured inhibition at 0.05 µM of individual entries
RESULT TYPE: inhibition at 0.05 µM (%)

- QUERY SMILES: "Clc1ccc(SCCCCN2CCN(c3cccc4c3OCCO4)CC2)c(Cl)c1"
  RESULT TYPE: "inhibition at 0.05 µM"
  READING UNIT: "%"
  OBSERVED: 99
- QUERY SMILES: "CCc1ccccc1SCCN1CCN(c2cccc3c2OCCO3)CC1"
  RESULT TYPE: "inhibition at 0.05 µM"
  READING UNIT: "%"
  OBSERVED: 93
- QUERY SMILES: "Clc1ccccc1SCCN1CCN(c2cccc3c2OCCO3)CC1"
  RESULT TYPE: "inhibition at 0.05 µM"
  READING UNIT: "%"
  OBSERVED: 75
- QUERY SMILES: "Cc1cccc(SCCCN2CCN(c3cccc4c3OCCO4)CC2)c1"
  RESULT TYPE: "inhibition at 0.05 µM"
  READING UNIT: "%"
  OBSERVED: 82
- QUERY SMILES: "Brc1cccc(SCCCN2CCN(c3cccc4c3OCCO4)CC2)c1"
  RESULT TYPE: "inhibition at 0.05 µM"
  READING UNIT: "%"
  OBSERVED: 102
- QUERY SMILES: "Fc1ccccc1SCCCCN1CCN(c2cccc3c2OCCO3)CC1"
  RESULT TYPE: "inhibition at 0.05 µM"
  READING UNIT: "%"
  OBSERVED: 91
- QUERY SMILES: "Clc1ccccc1SCCCCN1CCN(c2cccc3c2OCCO3)CC1"
  RESULT TYPE: "inhibition at 0.05 µM"
  READING UNIT: "%"
  OBSERVED: 102
- QUERY SMILES: "Fc1ccc(SCCCCN2CCN(c3cccc4c3OCCO4)CC2)c(Cl)c1"
  RESULT TYPE: "inhibition at 0.05 µM"
  READING UNIT: "%"
  OBSERVED: 101
- QUERY SMILES: "CCc1ccccc1SCCCN1CCN(c2cccc3c2OCCO3)CC1"
  RESULT TYPE: "inhibition at 0.05 µM"
  READING UNIT: "%"
  OBSERVED: 100
- QUERY SMILES: "CC(C)c1ccccc1SCCCCN1CCN(c2cccc3c2OCCO3)CC1"
  RESULT TYPE: "inhibition at 0.05 µM"
  READING UNIT: "%"
  OBSERVED: 93
- QUERY SMILES: "N#Cc1ccc(OCCCCN2CCN(c3cccc4c3OCCO4)CC2)c(Cl)c1"
  RESULT TYPE: "inhibition at 0.05 µM"
  READING UNIT: "%"
  OBSERVED: 94
- QUERY SMILES: "COc1ccc(OC)c(SCCCN2CCN(c3cccc4c3OCCO4)CC2)c1"
  RESULT TYPE: "inhibition at 0.05 µM"
  READING UNIT: "%"
  OBSERVED: 84
- QUERY SMILES: "FC(F)(F)c1ccccc1SCCN1CCN(c2cccc3c2OCCO3)CC1"
  RESULT TYPE: "inhibition at 0.05 µM"
  READING UNIT: "%"
  OBSERVED: 91
- QUERY SMILES: "C=CCc1cccc(Cl)c1OCCN1CCN(c2cccc3c2OCCO3)CC1"
  RESULT TYPE: "inhibition at 0.05 µM"
  READING UNIT: "%"
  OBSERVED: 82
- QUERY SMILES: "Clc1cccc(SCCN2CCN(c3cccc4c3OCCO4)CC2)c1"
  RESULT TYPE: "inhibition at 0.05 µM"
  READING UNIT: "%"
  OBSERVED: 87
- QUERY SMILES: "COc1ccc(SCCN2CCN(c3cccc4c3OCCO4)CC2)cc1OC"
  RESULT TYPE: "inhibition at 0.05 µM"
  READING UNIT: "%"
  OBSERVED: 64
- QUERY SMILES: "Cc1ccccc1SCCN1CCN(c2cccc3c2OCCO3)CC1"
  RESULT TYPE: "inhibition at 0.05 µM"
  READING UNIT: "%"
  OBSERVED: 102
- QUERY SMILES: "COc1ccccc1SCCCCN1CCN(c2cccc3c2OCCO3)CC1"
  RESULT TYPE: "inhibition at 0.05 µM"
  READING UNIT: "%"
  OBSERVED: 83
- QUERY SMILES: "FC(F)(F)Oc1ccc(SCCCN2CCN(c3cccc4c3OCCO4)CC2)cc1"
  RESULT TYPE: "inhibition at 0.05 µM"
  READING UNIT: "%"
  OBSERVED: 92
- QUERY SMILES: "FC(F)(F)c1ccccc1OCCN1CCN(c2cccc3c2OCCO3)CC1"
  RESULT TYPE: "inhibition at 0.05 µM"
  READING UNIT: "%"
  OBSERVED: 75
- QUERY SMILES: "Cc1ccc(Cl)c(OCCCCN2CCN(c3cccc4c3OCCO4)CC2)c1"
  RESULT TYPE: "inhibition at 0.05 µM"
  READING UNIT: "%"
  OBSERVED: 89
- QUERY SMILES: "CCc1ccccc1OCCN1CCN(c2cccc3c2OCCO3)CC1"
  RESULT TYPE: "inhibition at 0.05 µM"
  READING UNIT: "%"
  OBSERVED: 88
- QUERY SMILES: "Fc1ccccc1SCCN1CCN(c2cccc3c2OCCO3)CC1"
  RESULT TYPE: "inhibition at 0.05 µM"
  READING UNIT: "%"
  OBSERVED: 92
- QUERY SMILES: "Cc1cccc(C)c1OCCN1CCN(c2cccc3c2OCCO3)CC1"
  RESULT TYPE: "inhibition at 0.05 µM"
  READING UNIT: "%"
  OBSERVED: 91
- QUERY SMILES: "Clc1cccc(SCCCN2CCN(c3cccc4c3OCCO4)CC2)c1Cl"
  RESULT TYPE: "inhibition at 0.05 µM"
  READING UNIT: "%"
  OBSERVED: 97
- QUERY SMILES: "FC(F)(F)c1ccccc1SCCCN1CCN(c2cccc3c2OCCO3)CC1"
  RESULT TYPE: "inhibition at 0.05 µM"
  READING UNIT: "%"
  OBSERVED: 98
- QUERY SMILES: "Fc1ccccc1SCCCN1CCN(c2cccc3c2OCCO3)CC1"
  RESULT TYPE: "inhibition at 0.05 µM"
  READING UNIT: "%"
  OBSERVED: 84
- QUERY SMILES: "Clc1ccc(Cl)c(SCCCN2CCN(c3cccc4c3OCCO4)CC2)c1"
  RESULT TYPE: "inhibition at 0.05 µM"
  READING UNIT: "%"
  OBSERVED: 102
- QUERY SMILES: "N#Cc1cccc(OCCCCN2CCN(c3cccc4c3OCCO4)CC2)c1"
  RESULT TYPE: "inhibition at 0.05 µM"
  READING UNIT: "%"
  OBSERVED: 84
- QUERY SMILES: "Clc1ccc(SCCCN2CCN(c3cccc4c3OCCO4)CC2)cc1Cl"
  RESULT TYPE: "inhibition at 0.05 µM"
  READING UNIT: "%"
  OBSERVED: 99
- QUERY SMILES: "Cc1ccc(SCCN2CCN(c3cccc4c3OCCO4)CC2)c(C)c1"
  RESULT TYPE: "inhibition at 0.05 µM"
  READING UNIT: "%"
  OBSERVED: 91
- QUERY SMILES: "Cc1cccc(C)c1SCCCCN1CCN(c2cccc3c2OCCO3)CC1"
  RESULT TYPE: "inhibition at 0.05 µM"
  READING UNIT: "%"
  OBSERVED: 96

Attribution: patent US20030050306A1
